B1: TRIM35 (parent)
chain: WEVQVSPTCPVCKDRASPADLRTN

- Variants of: B1
- EXPERIMENTAL_PROTOCOL: protein stability index of a GFP-peptide fusion (GPS, HEK-293T) (PSI 1-6); higher = more stable;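 also: lentivirally expressed fusions sorted by FACS into six bins by GFP to DsRed ratio, PSI derived from sequencing read proportions per bin multiplied by bin number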
- REPORTED_CONDITIONS: c terminus: a fixed tail appended
QUANTITY_NAME: protein stability index

R22V    3.75
V3N    3.38
V3F    2.39
P10Y    2.29
R15A    3.22
S6E    1.71
P7V    1.32
L21C    3.26
C9F    2.85
D14V    1.61
C9T    3.94
P10N    2.58
S17H    2.08
T8A    3.17
P10I    2.34
D20Y    1.18
K13D    2
P10F    2.89
R15P    3.31
R15V    2.74
V3T    3.5
D20M    1.71

# credit: the supplement of paper PMC10567573
